experimentalDetails: protein stability index of a GFP-peptide fusion (GPS, HEK-293T) (PSI 1-6); higher = more stable;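 further: 24-mer peptide tiles fused after GFP, lentivirally expressed, FACS-sorted into six equal bins by GFP/DsRed ratio, decoded by Illumina sequencing, PSI is the read-weighted mean bin number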
conditionSummary: treatment: DMSO; c terminus: a fixed tail appended
Readings of protein stability index for the listed sequences

Reference set, count: 5
> print(dat)
                         itemsequence  recordedvalue
1    SVWGYDLGLRSLIPAVLTVSMLGY [MYORG]           3.05
2    HTDMTNKQNKTPLDKSTTGVSEIL [FEM1B]           4.85
3  WGPLQDSLEHTLRVAIAHYQDDPD [TSPAN10]           3.54
4     CEGKPYNQKSDIWALGCVLYELAS [NEK8]           3.08
5     LPSDGDHQVPTTAGNKAALLDQIR [WASL]           4.73

Provide only the value of recorded protein stability index for PMVLMIIVMCVQIKCFHEIITIGY [CDS2]
3.01

Identify measured protein stability index associated with TPEVAAAPKPDAAPSIDLFSTDAF [SNAP91]
4.75

Note protein stability index for the sequence shown: YQLFEELGKGAFSVVRRCVKVLAG [CAMK2A]
2.9
